Every entry's value here was drawn from the supplement of paper PMC12042874.

TEST_NAME: amyloid nucleation score (Sup35N fusion, yeast selection) (log enrichment); library NNK2; higher = more nucleation; inactive = no reads after selection;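 also: zero at mode of non-aggregating sequences after 7 days selection at 30°C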
MEASUREMENT_TYPE: amyloid nucleation score

# SUBSTANCE, MEASUREMENT_TYPE, RECORDED_NUMBER
rows = [
    ("QIFRLDFDARDSWAKMLESL", "amyloid nucleation score", 0.536),
    ("PNSSNPNPMRLVFRSMSFRL", "amyloid nucleation score", 0.269),
    ("GAVRVYNYNYQEVKTLLLVE", "amyloid nucleation score", -0.425),
    ("LVVCEMY", "amyloid nucleation score", 0.348),
    ("KVKSWCTGLLGA", "amyloid nucleation score", 0.075),
    ("LYGHGSILVRTNGGISFRRN", "amyloid nucleation score", -1.02),
]

====

TEST_NAME: amyloid nucleation score (Sup35N fusion, yeast selection) (log enrichment); library NNK2; higher = more nucleation; inactive = no reads after selection
MEASUREMENT_TYPE: amyloid nucleation score

# SUBSTANCE, MEASUREMENT_TYPE, RECORDED_NUMBER
measured = [
    ("LRSGLSLGSNLPKGGNIRSL", "amyloid nucleation score", -0.531),
    ("LQCLSRASGHCPGRSTFWHF", "amyloid nucleation score", 1.02),
    ("MLIPRVFISHVDICGYISCS", "amyloid nucleation score", 4.63),
    ("ASSWGVNGRVNKISRTG", "amyloid nucleation score", 1.32),
    ("FSDWIWTYCSQSFNGQE", "amyloid nucleation score", -0.817),
    ("WRVATCCAGRTIIQLETRFG", "amyloid nucleation score", 8.8),
    ("FVVQPLSSFLWVSIA", "amyloid nucleation score", 1.05),
    ("KNVLLKTLVHWLGRGMSAPG", "amyloid nucleation score", 0.165),
    ("TPDGIRLSVAHCS", "amyloid nucleation score", 0.764),
    ("NNSQEFSSYTWMNYLLIVKW", "amyloid nucleation score", -1.02),
    ("CESPLSYWWRSRSLFSLCVE", "amyloid nucleation score", -0.359),
    ("GSNHRSVVFIFLMLMGFMES", "amyloid nucleation score", -0.205),
    ("INTCIWASLYLSMAHEYRI", "amyloid nucleation score", -0.793),
    ("YSFCWLYNYPFIFYGFAFED", "amyloid nucleation score", 5.95),
    ("SMPWYMYCIVYYVDVYCCNI", "amyloid nucleation score", 6.57),
    ("VVTGSMDSCGQPKVSSSSAS", "amyloid nucleation score", 0.294),
    ("YHWWDLLLTLREPVRWRIQP", "amyloid nucleation score", 1.55),
    ("LADTGA", "amyloid nucleation score", 0.108),
    ("FCPVHSGISS", "amyloid nucleation score", -0.578),
    ("SNCSPLATMDCSPDFMSTF", "amyloid nucleation score", -0.121),
    ("YGRCNGLSGCQRGSCSREGG", "amyloid nucleation score", 0.483),
    ("HCMYDWMNRSMGLVFDCLFL", "amyloid nucleation score", -1.04),
    ("ILKRMLRCIYNFNISVWIIR", "amyloid nucleation score", -0.578),
    ("ARPIKFYKKLYFSCMIELLR", "amyloid nucleation score", -1.38),
    ("TKMYVD", "amyloid nucleation score", -0.573),
    ("RRGGDKVIISEHV", "amyloid nucleation score", -0.757),
    ("RMHWTKTH", "amyloid nucleation score", -0.311),
    ("STSSSLAR", "amyloid nucleation score", 0.867),
    ("LAGLYYVGVVENGMDMQDRK", "amyloid nucleation score", -0.329),
    ("CYSLWRFEQMKLGMKLRGMT", "amyloid nucleation score", 0.003),
]

====

TEST_NAME: amyloid nucleation score (Sup35N fusion, yeast selection) (log enrichment); library NNK3; higher = more nucleation; inactive = no reads after selection

# SUBSTANCE, amyloid nucleation score
measured = [
    ("SLNWVGVCNMKSPVNSTQSI", 0.329),
    ("YIKLGYQYLYVGE", "inactive"),
    ("SVCMVFYPVEREKEDQKSVE", "inactive"),
    ("NSWVNSPFNLS", "inactive"),
    ("SRNPYLYQIHVYKVTGFLCC", 2.51),
    ("GFFSLYVVE", "inactive"),
    ("PVMLGYGMGYSATVVKGCCL", "inactive"),
    ("RGVNKRKADVTRGCYSVVLN", "inactive"),
    ("SGVSFDSIGVSVLQTHGGLR", "inactive"),
    ("SFGIGSI", "inactive"),
    ("NCTFAGLAMFGNILN", "inactive"),
    ("NYDVPSDLRWEMLWVAYCRR", "inactive"),
    ("RIQCIRLDHFSLSLFYFFTA", 0.636),
    ("NSISSSRIAVNFAKYGNWDV", "inactive"),
    ("TRYCVVNW", -0.511),
    ("APAEIFDLLKSMNGTLCRMG", "inactive"),
    ("ASGVPIADYTNTLKRWWLSE", "inactive"),
    ("VSYRCSTICTNLVITVCLCD", 0.25),
    ("LRRTIYFTDDRCLWLDFAPL", 0.272),
    ("DFMRVGVTRRALRVLSKSSD", "inactive"),
    ("RKGNGMHKNSYSTARMYCGF", "inactive"),
    ("WGTFIKSFQRLVKMVLLSMP", "inactive"),
    ("LNNFMWKHVMGYPYVAWLAF", "inactive"),
    ("CIFMRIYGVC", "inactive"),
    ("SVVDRGASRFKRTVNVSNKA", "inactive"),
    ("TFLLCVVDGCCICRRGSCAS", 2.2),
    ("SCSCESCYKGVAEYDLVKDV", 1.32),
    ("LKTTDLLPQVTCPHLCILFL", 0.808),
    ("RVMFMASVWSNCGLWSSGTS", 1.39),
    ("FDVVVIYATGVCFLATYYQG", "inactive"),
    ("GLFCLKFKPTQGVPRQKLL", "inactive"),
    ("NLSLLSLVSFEVEVIQCTMR", "inactive"),
    ("VFSKSLGI", "inactive"),
    ("SSFLWTVWGFSNNPCCSSVA", 2.46),
    ("GISWILSVGGCTSRAWLWSW", "inactive"),
    ("VNVIDLFGFQPSNRLTGNVR", "inactive"),
    ("GTSIYSYRYLRYFSMFNM", "inactive"),
    ("NFVRGTGFVGRLESLNWKV", "inactive"),
    ("EKITFGECWKACSAF", "inactive"),
    ("SVIVTYVWVTAVVQGEYSTK", -0.095),
    ("IIFWNICPAYCYL", 2.29),
    ("SPWYLNVAIGTAKGCLSFID", "inactive"),
    ("HSFIDERWSLYYERVLVYTG", "inactive"),
    ("YRHPTIECWSKMRCALVVCT", "inactive"),
    ("DALVSYCWLSNLDTAGKMET", "inactive"),
    ("LNFPQMSYP", "inactive"),
    ("MHNKVGPYTD", "inactive"),
    ("NRLWSYMGTVLFNPFWLVWR", "inactive"),
    ("FIIVPKWSCFLVSSMKFRVV", "inactive"),
    ("SASVGFGHSSWNPIIGMIRI", "inactive"),
    ("VDETPSSHMSIPVMERVLCG", "inactive"),
    ("SIFSSCLSPYSFSYIKLLSC", 0.504),
    ("MGKKSAHLSYRICVQCGKDG", "inactive"),
    ("DYLPFHLMERDKVALAPWWA", "inactive"),
    ("GVRHRLAVFQYMFTHVLWTM", "inactive"),
    ("ELCVRQLCY", "inactive"),
    ("CFSLGVCGQAKVNVWNNIYV", 2.71),
    ("EVFLIIIVKMVNGLSRESRC", "inactive"),
    ("LCPHPPFLCLVQQRFTTGSG", -0.123),
    ("FYSIPMLRLVVNNVLKLTAI", "inactive"),
    ("FCFKSLALELPIQKY", "inactive"),
]

====

TEST_NAME: amyloid nucleation score (Sup35N fusion, yeast selection) (log enrichment); library NNK3; higher = more nucleation; inactive = no reads after selection

# SUBSTANCE, amyloid nucleation score
measured = [
    ("LLNRDI", "inactive"),
    ("KCSNLVAFVI", "inactive"),
    ("KCMQVVSSRSWVVHWGWKGG", "inactive"),
    ("TPSLAIKK", "inactive"),
    ("NDLSGKTCNGRRVEDRAPMA", -0.114),
    ("SFEPRSLMYNTNRGI", "inactive"),
    ("NQFMGRVV", "inactive"),
    ("DLGMLERC", "inactive"),
    ("ICSGTSH", -0.268),
    ("DLTSIVWSRAYVVSY", "inactive"),
]
